FYI, the data here is from the METLIN SMRT retention time set (Domingo-Almenara et al. 2019).

Experiment: gradient 5% acetonitrile 3 min, to 50% in 2 min, to 85% in 15 min, held 3 min, 100 µL/min
Details: column: Zorbax Extend-C18 2.1 x 50 mm; eluents: water / acetonitrile, 0.1% formic acid
PROPERTY_MEASURED: RP-LC retention time (s)

Use the examples below as a reference point.
CCOC(=O)c1csc(NC(=O)C2CCCN2S(C)(=O)=O)n1 (stereo not given) | 649
CCC(C(=O)Nc1ccc(Cl)cc1)n1cnc2nc3c(cc2c1=O)CCCC3 (stereo not given) | 878
Cc1nn(-c2ccc(F)cc2)c(C)c1S(=O)(=O)N1CCC(C(=O)N2CCCCC2)CC1 | 914
Cc1cccc(N2CC(C(=O)NC3CC3)CC2=O)c1 (stereo not given) | 671
O=C(O)C1CCN(C(=O)CCc2c[nH]c3ccccc23)CC1 | 662

[P] CC(CNC(=O)c1nc(Cn2c(=O)oc3ccccc32)no1)c1ccccc1 (stereo not given)
[Q] CN1CCC(NC(=O)C2CCc3sc(C(=O)N4CCCCCC4)cc3C2)CC1 (stereo not given)
Lowest RP-LC retention time? choose P or Q Bench note: the answer is the label of the chosen record.
Q
